tested on: MS2 coat protein; assay: apparent KD of MS2 coat protein; designed switch direction (-1 OFF switch, 1 ON switch): -1; higher = weaker reporter binding; details: input ligand: FMN 200 uM
quantity: apparent KD of MS2 coat protein (nM)
Give just the numeric value; nM need not be written.

Some sequences with known apparent KD of MS2 coat protein results, for comparison:
UACAUGAGGAUCACCCAUGUUUUGUCGUGUAUGGUAUUUAUCUAGGAUAUCAAUGGAUUUAUUUAUGAGAAGGAGAAUAUUAAU [JMF's solution 38] (Eterna round: R96, puzzle: Exclusion NG 3)	39.6
AAGGCGCGCGUAGGAUAUCACCGCAAAAGUCGAUGAGAAGGGCGAGUGCAUGGUGUCCUAACUUGAGGAUCACCCAAGUAAAGA [Mutated MS2 EX1.22] (Eterna round: R96, puzzle: Exclusion NG 1)	67.9

Now turn to the next sequence.
### Prompt Give apparent KD of MS2 coat protein; test system MS2 coat protein; sequence UGUAAGCUAGGAUAUGCUUUGGGAAAGCAUUCCUUCGAUAAACUUGAGGAUCACCCAAGUAGAAGGAGCUUACG [salish99_ex2_r4_007] (Eterna round: R97, puzzle: Exclusion 2)
### Response 14.1
